Experiment: solvent given as SMILES
Details: in CCN(CC)CC
RESULT_TYPE: emission maximum (nm)
Number in nm, nothing else.

Example compounds with recorded emission maximum:
INSERT INTO assay_data (given_smiles, recorded_number) VALUES
  ('c1ccc(N(c2ccccc2)c2ccc(-c3cccc4nc5ccccc5cc34)cc2)cc1', 479),
  ('CC(C)(C)c1ccc(-c2nc3c4ccc(-c5ccc6ccc7cccc8ccc5c6c78)cc4c4cc(-c5ccc6ccc7cccc8ccc5c6c78)ccc4c3n2-c2ccc(C(C)(C)C)cc2)cc1', 428),
  ('c1ccc(N2c3ccccc3Sc3cc(-c4cccc5nc6ccccc6cc45)ccc32)cc1', 525);

Okay, now this compound:
Record CCCCCCCCC1(CCCCCCCC)c2cc(-c3ccc(C(F)(F)F)cc3)ccc2-c2ccc(N(c3ccc(-n4c5ccccc5c5ccccc54)cc3)c3ccc4c(c3)C(CCCCCCCC)(CCCCCCCC)c3cc(-c5ccc(C(F)(F)F)cc5)ccc3-4)cc21 . Reported emission maximum: 423
